protein stability index overview
Experiment description: protein stability index of a GFP-peptide fusion (yeast GPS) (PSI 1-4); higher = more stable; sorted into four equal gates, so the index is relative within each strain
Experimental parameters: pdr5∆
Could you keep your reply to the number by itself?

A selection of reference data follows.
INSERT INTO results (seq, numeric_readout) VALUES
  ('ILVMETSEEQTKFLAKN [SWP82]', 2.91),
  ('EAASSNKSFIVDQGQIY [ITC1]', 2.95),
  ('RLRTLCRDSDDHKRFIV [DIS3]', 2.75),
  ('KRQAYAVSEKAGHQTSA [RPL4A]', 1.4);

**Query** Give the measured protein stability index of REILCYSKDAKEIYYTP [FAS2] .
**Result** 2.82

**Query** Fill blank: measured protein stability index of the sequence DHFLSMCQNPMQKPVPF [FAS1] is ____.
**Result** 3.01

###

Experiment description: protein stability index of a GFP-peptide fusion (yeast GPS) (PSI 1-4); higher = more stable; sorted into four equal gates, so the index is relative within each strain
Experimental parameters: doa10∆
Value type: protein stability index
No unit in the answer, please; the number alone is enough.

INSERT INTO results (seq, numeric_readout) VALUES
  ('GFNMKKITTSTEDQKVT [SRP68]', 2.84),
  ('NQVGTDELILPLPSHAL [YDL116W/NUP84]', 3.09),
  ('ASELANPYSSYVSQIRK [YAR002W/NUP60]', 3.22);

Now for another entry.
**Query** Please look up its protein stability index: VFVGSGKGTGKTAMAEL [BRR2]
**Result** 3.29

###

Experiment description: protein stability index of a GFP-peptide fusion (yeast GPS) (PSI 1-4); higher = more stable; sorted into four equal gates, so the index is relative within each strain
Experimental parameters: doa10∆
Value type: protein stability index
Just the number, please, no unit after it.

Worked examples, 5 sequences total:
INSERT INTO assay_data (seq, numeric_readout) VALUES
  ('SSDAFEVDVCDKCGLMG [RET1]', 2.38),
  ('LESEAQKKATMSAEEAL [RPC34]', 3.13),
  ('WDLLPEPIRFLPNQFPL [SWI1]', 2.54),
  ('EREIKRRKFDPSSSENV [UBP6]', 3.51),
  ('CIFNFLQQQTPVTIWLF [SME1]', 1.18);

**Query** Field request: protein stability index | item: IQPKITELKKKLDDLEN [SMC1]
**Result** 3.11

**Query** Report protein stability index for SDFTFPEYYSTARVMGG [DIS3] please.
**Result** 1.57

**Query** Recorded protein stability index for SQPNNTPSFSFGKTTAN [YLR335W/NUP2] , please?
**Result** 2.76

**Query** Param item = RLIDLSGCENITDKTIE [GRR1] ; retrieve measured protein stability index.
**Result** 3.05

###

Measured protein stability index, listed per entry.
Experiment description: protein stability index of a GFP-peptide fusion (yeast GPS) (PSI 1-4); higher = more stable; sorted into four equal gates, so the index is relative within each strain
Experimental parameters: ubr1∆
Field format: numeric only.

Some sequences with recorded protein stability index:
INSERT INTO measurements (seq, numeric_readout) VALUES
  ('ISLRNNHKIIARVKAFD [SMD2]', 2),
  ('LLDRILPKLKATGHRVL [SNF2]', 2.63),
  ('VLDSMTKEELESDGRMF [SRP54]', 2.27),
  ('GCGTVKRFNIGADPNYR [RPR2]', 3.46),
  ('PQIVVPDAQNELPKFIL [DIS3]', 2.98),
  ('QQPQTNTAPGLGNTVST [YGR119C/NUP57]', 3.06),
  ('DIRDSSCQGNVIYRNSL [YMR129W/POM152]', 3.37),
  ('TLIKKKQDEKKSSELEL [SMC2]', 3.05),
  ('GRPETYIWRYLPAPPVC [RPO31]', 2.02),
  ('VYEYVIASTLGPSAMRL [RPC82]', 1.23);

**Query** Recorded protein stability index of MVLFNIYDDWLDRISSY [PRP8] , please.
**Result** 2.26

**Query** State the recorded protein stability index for this entry: LANEERLSNEMHALKNR [RGR1]
**Result** 3.66

**Query** For GKEFEARNLIEDEDDGE [RPC53] , what is its reported protein stability index?
**Result** 2.94

**Query** Which value of protein stability index has been reported for LIELLEKLDVSRSSVCV [YCG1] in the records?
**Result** 1.88
